Target: T1, human TREM2-Fc (human, UniProt Q9NZC2 19-174)
T1 construct: also called hTREM2; not shown: Fc part (captured by anti-human IgG1 Fc or protein A)
T1 sequence: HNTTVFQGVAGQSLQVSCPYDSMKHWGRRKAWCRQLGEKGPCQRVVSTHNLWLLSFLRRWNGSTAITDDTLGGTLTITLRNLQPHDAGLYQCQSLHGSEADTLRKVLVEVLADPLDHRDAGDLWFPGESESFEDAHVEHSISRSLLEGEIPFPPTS
Assay: SPR (Biacore T200), 37 C; TREM2-Fc on protein A chip, Fab in solution
Documented kon across a set of binders
measured.endpoint: kon (M⁻¹ s⁻¹)

>>> reported("3.10C2-H6/3.10C2-L1 Fab (Fab, V domains shown) VH: EVQLVESGGGLVQPGGSLKLSCATSGFPFSNVWMHWVRQASGKGLEWVAHIKAKSDNYATYYAESVKGRFTISRDDSKNTIYLQMNSLKTEDTAVYYCTGLDYWGQGTTVTVSS VL: DTVLTQSPLSLPVTPGEPASISCRSSKSLLGVRDITSLYWYLQKPGQSPQLLIYRMSNLASGVPDRFSGSGSETDFTLKISRVEAEDVGVYYCAQFLRYPYTFGQGTKVEIK")
210000
>>> reported("3.10C2-H4/3.10C2-L1 Fab (Fab, V domains shown) VH: EVQLVESGGGLVQPGGSLKLSCAASGFPFSNVWMHWVRQASGKGLEWIGHIKAKSDNYATYYAESVKGRFTISRDDSKNTIYLQMNSLKTEDTAVYYCTGLDYWGQGTTVTVSS VL: DTVLTQSPLSLPVTPGEPASISCRSSKSLLGVRDITSLYWYLQKPGQSPQLLIYRMSNLASGVPDRFSGSGSETDFTLKISRVEAEDVGVYYCAQFLRYPYTFGQGTKVEIK")
"1.2e+06"
>>> reported("3.10C2-H7/3.10C2-L1 Fab (Fab, V domains shown) VH: EVQLVESGGGLVQPGGSLKLSCATSGFPFSNVWMHWVRQASGKGLEWVAHIKAKSDNYATYYAESVKGRFTISRDDSKNTAYLQMNSLKTEDTAVYYCTGLDYWGQGTTVTVSS VL: DTVLTQSPLSLPVTPGEPASISCRSSKSLLGVRDITSLYWYLQKPGQSPQLLIYRMSNLASGVPDRFSGSGSETDFTLKISRVEAEDVGVYYCAQFLRYPYTFGQGTKVEIK")
"1.2e+06"
>>> reported("3.10C2 Fab (Fab, V domains shown, also called 3.10C2 (3.10C2); Rat3.10C2) VH: EVQLVETGGSLVQPGKSLKLTCATSGFPFSNVWMHWVRQSPEKQLEWIAHIKAKSDNYATYYAESVKGRFTISRDDSKTSIYLQMNSLKEDDTAIYYCTGLDYWGQGVMVTVSS VL: DTVLTQAPLSLSVTPGESASISCRSSKSLLGVRDITSLYWYLQKPGKSPQLLIYRMSNLASGVPDRFSGSGSETDFTLKISEVETEDVGVYYCAQFLRYPYTFGPGTKLELK")
720000
>>> reported("3.10C2-H2/3.10C2-L1 Fab (Fab, V domains shown) VH: EVQLVESGGGLVQPGGSLKLSCATSGFPFSNVWMHWVRQASGKGLEWVGHIKAKSDNYATYYAESVKGRFTISRDDSKNTIYLQMNSLKTEDTAVYYCTGLDYWGQGTTVTVSS VL: DTVLTQSPLSLPVTPGEPASISCRSSKSLLGVRDITSLYWYLQKPGQSPQLLIYRMSNLASGVPDRFSGSGSETDFTLKISRVEAEDVGVYYCAQFLRYPYTFGQGTKVEIK")
520000

The measured values listed here are drawn from patent US20220389097A1.
